test system: Poly/Mono-ADP Ribose in U2OS cells; test: PAR in cell western assay (parylation) in U2OS cells; type: cell-based; details: Homo sapiens; U2OS cells, 6 hrs, 2 mM H2O2; read-out: Parylation (U2OS)
Kindly state IC50 for each of the entries shown.

Problem: # query: IC50 of entry O=C(N[C@@H](C(=O)N1CCC(OC2CCN(CC(=O)N3CCN(C(=O)c4cc(Cc5n[nH]c(=O)c6ccccc56)ccc4F)CC3)CC2)CC1)C1CCCCC1)c1cccc(C2CCCN(C(=O)C34CC(F)(C3)C4)C2)c1F (some centres unmarked)
Result: 10 to 100 nM

Problem: Repeat for the following compound: CCc1cccc(-c2cnc(C(=O)N3CCN(CC4CCN(CC(=O)N5CCN(C(=O)c6cc(Cc7n[nH]c(=O)c8ccccc78)ccc6F)CC5)CC4)CC3)c(NC(=O)CNCc3ccncn3)c2)c1
Result: 100 to 1000 nM

Problem: Repeat for the following compound: CC(C)(C)C(=O)N1CCCC(c2cccc(C(=O)N[C@@H](C(=O)N3CCC(OC4CCN(CC(=O)N5CCN(C(=O)c6cc(Cc7n[nH]c(=O)c8ccccc78)ccc6F)CC5)CC4)CC3)C3CCCCC3)c2F)C1 (some centres unmarked)
Result: 100 to 1000 nM

Problem: Repeat for the following compound: O=C(N[C@@H](C(=O)N1CCN(CC23CCC(C(=O)N4CCN(C(=O)c5cc(Cc6n[nH]c(=O)c7ccccc67)ccc5F)CC4)(CC2)CO3)CC1)C1CCCCC1)c1cccc(C2CCCN(C(=O)CNC3CC3)C2)c1 (some centres unmarked)
Result: 10 to 100 nM

Problem: Repeat for the following compound: CCc1cccc(-c2cc(F)c(C(=O)N3CCC(OC4CCN(CC(=O)N5CCN(C(=O)c6cc(Cc7n[nH]c(=O)c8ccccc78)ccc6F)CC5)CC4)CC3)c(F)c2)c1
Result: < 10 nM

----------
system: MDA-MB-436 cells; experiment: Cell proliferation assay (MDA-MB-436); assay type: cell-based; details: Homo sapiens, 168 h, 7 days
pIC50: −log10 of the molar value.
recorded_endpoint: pIC50

Problem: # query: pIC50 of entry CCc1cccc(-c2cnc(C(=O)N3CCC(CN4CCN(CC(=O)N5CCN(C(=O)c6cc(Cc7n[nH]c(=O)c8ccccc78)ccc6F)CC5)CC4)CC3)c(NC(=O)CN3CCOCC3)c2)c1
Result: 7.00 to 8.00

Problem: Repeat for the following molecule: CCOc1cc(OC)ccc1CNCC(=O)N1CCCC(c2cccc(C(=O)N[C@@H](C(=O)N3CCN(CC45CCC(C(=O)N6CCN(C(=O)c7cc(Cc8n[nH]c(=O)c9ccccc89)ccc7F)CC6)(CC4)CO5)CC3)C3CCCCC3)c2)C1 (stereo partly drawn)
Result: 7.00 to 8.00

Problem: Repeat for the following molecule: O=C(N[C@@H](C(=O)N1CCN(CC23CCC(C(=O)N4CCN(C(=O)c5cc(Cc6n[nH]c(=O)c7ccccc67)ccc5F)CC4)(CC2)CO3)CC1)C1CCCCC1)c1cccc(C2CCCN(C(=O)CNC3CC3)C2)c1 (stereo partly drawn)
Result: > 8.00

Problem: Repeat for the following molecule: O=C(N[C@@H](C(=O)N1CCN(CC2CCN(CC(=O)N3CCN(C(=O)c4cc(Cc5n[nH]c(=O)c6ccccc56)ccc4F)CC3)CC2)CC1)C1CCCCC1)c1cccc(C2CCCN(C(=O)CNCc3ccc(F)cc3F)C2)c1 (stereo partly drawn)
Result: 7.00 to 8.00

Problem: Repeat for the following molecule: O=C(N[C@@H](C(=O)N1CCN(CC(=O)N2CCN(C(=O)c3cc(Cc4n[nH]c(=O)c5ccccc45)ccc3F)CC2)CC1)C1CCCCC1)c1cc(C2CCCN(C(=O)C3CC3)C2)ccc1F (stereo partly drawn)
Result: 7.00 to 8.00

Problem: Repeat for the following molecule: CC1(C(=O)N2CCC(c3cccc(C(=O)N[C@@H](C(=O)N4CCC(OC5CCN(CC(=O)N6CCN(C(=O)c7cc(Cc8n[nH]c(=O)c9ccccc89)ccc7F)CC6)CC5)CC4)C4CCCCC4)c3F)CC2)CC1
Result: > 8.00

Problem: Repeat for the following molecule: O=C(N[C@@H](C(=O)N1CCN(CC23CCC(C(=O)N4CCN(C(=O)c5cc(Cc6n[nH]c(=O)c7ccccc67)ccc5F)CC4)(CC2)CO3)CC1)C1CCCCC1)c1cccc([C@H]2CCCN(C(=O)CNC3CC3)C2)c1 (racemic)
Result: 7.00 to 8.00

Problem: Repeat for the following molecule: O=C(N[C@@H](C(=O)N1CCN(CC23CCC(C(=O)N4CCN(C(=O)c5cc(Cc6n[nH]c(=O)c7ccccc67)ccc5F)CC4)(CC2)CO3)CC1)C1CCCCC1)c1cccc([C@@H]2CCCN(C(=O)CNC3CC3)C2)c1
Result: > 8.00

Problem: Repeat for the following molecule: CCOc1cc(OC)ccc1CNCC(=O)N1CCCC(c2cccc(C(=O)N[C@@H](C(=O)N3CCN(CC4CCN(CC(=O)N5CCN(C(=O)c6cc(Cc7n[nH]c(=O)c8ccccc78)ccc6F)CC5)CC4)CC3)C3CCCCC3)c2)C1 (stereo partly drawn)
Result: 7.00 to 8.00

All values here come from patent US20250127907A1.
